Observed pIC50, system ULK1 (Homo sapiens, UniProt O75385).
pIC50: −log10 of the molar value.

See these solved cases before continuing.
>  <COMPOUND>
C[C@@H]1COCCN1c1nc(Nc2ccc3c(c2)CCC(=O)N3)ncc1C(F)(F)F

>  <pIC50>
> 6.70

$$$$
>  <COMPOUND>
Cc1cccc(Oc2nc(Nc3ccc4c(c3)CCC(=O)N4)ncc2C(F)(F)F)c1C

>  <pIC50>
> 6.70

$$$$
>  <COMPOUND>
FC(F)(F)c1cnc(Nc2ccc3c(c2)OCCO3)nc1NC1CC1 [Compound 158a]

>  <pIC50>
> 6.70

$$$$
>  <COMPOUND>
Brc1cnc(Nc2cnc3[nH]ccc3c2)nc1NC1CC1

>  <pIC50>
> 6.70

$$$$
>  <COMPOUND>
CNC(=O)c1ccccc1Oc1nc(Nc2cc(OC)ccc2C)ncc1C(F)(F)F

>  <pIC50>
< 5.70

$$$$

Turning to the following compound.
Asked: Query (compound): FC(F)(F)c1cnc(Nc2cccc3ncccc23)nc1NC1CC1 ; field requested: pIC50
Given back: < 5.70

* * *

Molecular target: ULK1 (Homo sapiens)
Sequence (O75385 1-1050): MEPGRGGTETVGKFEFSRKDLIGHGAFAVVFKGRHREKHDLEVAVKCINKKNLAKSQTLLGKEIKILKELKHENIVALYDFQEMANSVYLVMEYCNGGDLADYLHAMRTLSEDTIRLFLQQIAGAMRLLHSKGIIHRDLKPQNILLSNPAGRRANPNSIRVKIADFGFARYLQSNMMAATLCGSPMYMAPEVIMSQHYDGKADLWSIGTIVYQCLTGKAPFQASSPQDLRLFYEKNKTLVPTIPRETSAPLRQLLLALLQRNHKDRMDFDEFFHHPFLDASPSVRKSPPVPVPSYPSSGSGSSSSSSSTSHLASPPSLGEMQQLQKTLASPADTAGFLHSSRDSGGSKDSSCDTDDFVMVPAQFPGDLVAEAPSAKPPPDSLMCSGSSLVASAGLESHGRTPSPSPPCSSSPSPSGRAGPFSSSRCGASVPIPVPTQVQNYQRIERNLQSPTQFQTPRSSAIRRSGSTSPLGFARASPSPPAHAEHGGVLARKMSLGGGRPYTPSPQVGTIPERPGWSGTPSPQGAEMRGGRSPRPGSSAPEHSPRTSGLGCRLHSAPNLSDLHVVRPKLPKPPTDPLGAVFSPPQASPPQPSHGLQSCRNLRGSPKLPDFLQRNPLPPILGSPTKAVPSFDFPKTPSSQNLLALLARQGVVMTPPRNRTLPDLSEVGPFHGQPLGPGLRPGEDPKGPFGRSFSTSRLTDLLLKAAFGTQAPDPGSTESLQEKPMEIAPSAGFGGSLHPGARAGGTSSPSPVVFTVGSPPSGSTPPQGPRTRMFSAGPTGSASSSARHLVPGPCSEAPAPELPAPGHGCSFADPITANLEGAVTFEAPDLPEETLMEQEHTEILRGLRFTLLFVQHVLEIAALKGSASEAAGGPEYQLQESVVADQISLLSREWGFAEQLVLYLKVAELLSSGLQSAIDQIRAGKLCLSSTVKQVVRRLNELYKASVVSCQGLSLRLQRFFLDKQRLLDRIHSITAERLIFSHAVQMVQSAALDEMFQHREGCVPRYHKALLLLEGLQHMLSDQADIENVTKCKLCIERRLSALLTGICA
ASSAY_ENDPOINT: IC50

Asked: Record request: IC50 value, item FC(F)(F)c1cnc(NC2CCC2)nc1Nc1cnc2[nH]ccc2c1 [Compound 161b]
Given back: < 0.2 µM

Asked: Can you check Nc1nc(N(C(=O)C2CC2)c2ccc3c(c2)CCC(=O)N3)ncc1C(F)(F)F next?
Given back: > 2 µM

Asked: Now the compound FC(F)(F)c1cnc(NC2Cc3ccccc3C2)nc1Nc1ccc2c(c1)OCO2 [Compound 163a]
Given back: > 2 µM

Asked: Please answer likewise for O=C1CCc2cc(Nc3nc(Nc4ccc5c(c4)OC(F)(F)O5)ncc3C(F)(F)F)ccc2N1 [Compound 178b]
Given back: < 0.2 µM

Asked: How about this compound: FC(F)(F)c1cnc(Nc2cnc3[nH]ccc3c2)nc1Nc1ccccc1 [Compound 181a]
Given back: < 0.2 µM

Asked: Ok, now CNC(=O)c1ccccc1Oc1nc(Nc2ccc(OC)cc2)ncc1C(F)(F)F [Compound 105a]
Given back: > 2 µM

Asked: # iterate: FC(F)(F)c1cnc(NCc2cccc3ccccc23)nc1NC1CC1
Given back: > 2 µM

Asked: Can you handle COc1cc(Nc2ncc(Br)c(Oc3cccc4cccnc34)n2)cc(OC)c1OC [Compound 324a] next?
Given back: > 2 µM

Asked: Entry to check: FC(F)(F)c1cnc(Nc2cnc3[nH]ccc3c2)nc1NC1CCC1 [Compound 161a]
Given back: < 0.2 µM

Asked: Can you check O=C1CCc2cc(Nc3ncc(C(F)(F)F)c(NC4CCC4)n3)ccc2N1 [Compound 150a] next?
Given back: < 0.2 µM

Asked: Let us now turn to COC(=O)[C@@H]1CCCN1c1nc(Nc2ccc3c(c2)CCC(=O)N3)ncc1C(F)(F)F
Given back: 0.2 to 2 µM

Asked: How about COc1cc(Nc2ncc(Cl)c(N(C)C(=O)c3ccccc3O)n2)cc(OC)c1OC [Compound 234b] ?
Given back: 0.2 to 2 µM

Asked: Try COc1cc(Nc2ncc(C(F)(F)F)c(Oc3ccccc3N)n2)cc(OC)c1OC next.
Given back: < 0.2 µM

Asked: Proceed to CNC(=O)c1ccccc1Oc1nc(Nc2ccc(C)cc2Cl)ncc1C(F)(F)F
Given back: > 2 µM

* * *

Molecular target: ULK1 (Homo sapiens, UniProt O75385)
Sequence (O75385 1-1050): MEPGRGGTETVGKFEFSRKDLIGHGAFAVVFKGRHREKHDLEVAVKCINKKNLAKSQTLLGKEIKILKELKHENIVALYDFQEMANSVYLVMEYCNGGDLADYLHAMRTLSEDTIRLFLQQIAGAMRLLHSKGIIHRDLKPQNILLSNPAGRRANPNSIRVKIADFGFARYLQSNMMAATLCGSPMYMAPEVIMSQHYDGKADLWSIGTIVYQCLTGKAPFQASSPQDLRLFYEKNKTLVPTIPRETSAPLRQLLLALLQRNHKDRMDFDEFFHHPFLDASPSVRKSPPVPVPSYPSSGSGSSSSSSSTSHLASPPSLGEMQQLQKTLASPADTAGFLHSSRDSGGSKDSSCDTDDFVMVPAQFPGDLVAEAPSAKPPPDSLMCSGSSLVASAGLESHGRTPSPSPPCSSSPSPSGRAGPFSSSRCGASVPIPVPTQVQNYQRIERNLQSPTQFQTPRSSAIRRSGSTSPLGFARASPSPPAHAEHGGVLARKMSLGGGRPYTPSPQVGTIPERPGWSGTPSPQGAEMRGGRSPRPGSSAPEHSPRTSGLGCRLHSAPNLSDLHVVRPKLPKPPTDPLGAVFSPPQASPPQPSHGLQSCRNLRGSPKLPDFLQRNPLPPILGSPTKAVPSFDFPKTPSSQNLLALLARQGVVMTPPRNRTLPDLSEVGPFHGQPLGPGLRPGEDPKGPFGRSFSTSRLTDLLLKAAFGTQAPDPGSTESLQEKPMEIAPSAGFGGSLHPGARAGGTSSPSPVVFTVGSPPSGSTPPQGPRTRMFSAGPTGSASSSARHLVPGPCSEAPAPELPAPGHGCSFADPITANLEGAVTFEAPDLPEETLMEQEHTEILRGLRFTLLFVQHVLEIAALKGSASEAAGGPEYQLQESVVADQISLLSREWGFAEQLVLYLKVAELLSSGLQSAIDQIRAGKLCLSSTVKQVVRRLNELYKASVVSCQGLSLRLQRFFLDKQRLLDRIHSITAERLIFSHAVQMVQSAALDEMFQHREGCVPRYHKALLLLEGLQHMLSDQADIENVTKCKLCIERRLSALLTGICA
ASSAY_ENDPOINT: IC50

Asked: Request the reported IC50 associated with COc1cccc(Nc2nc(Nc3cc4ccccc4cc3O)ncc2C(F)(F)F)c1
Given back: 0.2 to 2 µM

Asked: Also, COc1cc(Nc2ncc(Br)c(Oc3ccccc3N)n2)cc(OC)c1OC [Compound 254b] please.
Given back: < 0.2 µM

Asked: // query: COc1cc(Nc2nc(Oc3cccc4c3N(C(C)=O)CCC4)ncc2Br)cc(OC)c1OC [Compound 335b]
Given back: < 0.2 µM

Asked: Further, for COc1cc(Nc2ncc(Br)c(Oc3ccccc3NS(C)(=O)=O)n2)cc(OC)c1OC ?
Given back: > 2 µM

Asked: Item: FC(F)(F)c1cnc(NC2CCC2)nc1Nc1ccc2c(c1)OCO2 [Compound 168a]
Given back: < 0.2 µM

* * *

ULK1 (Homo sapiens): recorded IC50 for assorted compounds

>  <COMPOUND>
CSc1ccccc1Nc1ncc(C(F)(F)F)c(Nc2ccccc2SC)n1 [Compound 116b]

>  <IC50>
> 2 µM

$$$$
>  <COMPOUND>
CNC(=O)c1ccccc1Oc1ccnc(Nc2cc(OC)c(OC)c(OC)c2)n1

>  <IC50>
> 2 µM

$$$$
>  <COMPOUND>
O=C1CCc2cc(Nc3ncc(C(F)(F)F)c(OC4COC4)n3)ccc2N1 [Compound 231a]

>  <IC50>
< 0.2 µM

$$$$
>  <COMPOUND>
c1cc(NC2CC2)nc(Nc2cnc3[nH]ccc3c2)n1

>  <IC50>
> 2 µM

$$$$
>  <COMPOUND>
COc1cc(N2CCOCC2)ccc1Nc1nc(Nc2ccc3c(c2)CCC(=O)N3)ncc1C(F)(F)F [Compound 123a]

>  <IC50>
< 0.2 µM

$$$$

Asked: Form: Entry = COc1cc(Nc2ncc(Br)c(Nc3ccccc3)n2)cc(OC)c1OC | System = ULK1 (Homo sapiens) | IC50 = ____
Given back: < 0.2 µM

Asked: For FC(F)(F)c1cnc(Nc2ccnnc2)nc1NC1CC1 [Compound 221a] then?
Given back: < 0.2 µM

Asked: And the next one, O=C1CCc2cc(Nc3ncc(C(F)(F)F)c(Nc4nccs4)n3)ccc2N1 ?
Given back: > 2 µM
